Reference for the values: PubChem BioAssay (NCI)

Test system: NCI-H460 lung
test-details: NCI tumour cell line growth inhibition, 48 h

{"columns": ["compound", "TGI"],
 "data": [
  ["CSCCC(NC(=O)Cc1ccc(C(=O)c2ccccc2)cc1)C(=O)N1CCN(CCCCN2c3ccccc3Sc3cc(N=[N+]=[N-])ccc32)CC1 (stereo not given)", "> 100 µM"],
  ["CCOC(=O)Nc1ccc2nc(N3CCCCCC3)sc2c1", "> 38.7 µM"],
  ["COC(=O)CNC(=O)CNC(=O)CSc1nnc(COc2ccc(Cl)cc2)n1-c1ccccc1", "> 100 µM"],
  ["CSC1=C(SC)C(=O)c2cn(C)c(=O)cc2C1=O", "32 µM"],
  ["CC(=O)NC(CS)C(=O)O (stereo not given)", "62300 µM"],
  ["Cc1ccc(NC(=O)CCc2nnc3s/c(=C\\c4cccc([N+](=O)[O-])c4)c(=O)n23)cc1", "> 100 µM"],
  ["COc1ccc(/C(=C/c2ccc3ccccc3c2)c2nn[nH]n2)cc1OC", "16.3 µM"],
  ["Cc1ccc(S(=O)(=O)OCC(=O)Nc2ccc(C(=O)O)c(O)c2)cc1", "292 µM"],
  ["O=C1C=CC(=O)c2c(O)c(NCCO)c(Cl)c(O)c21", "8.68 µM"],
  ["C[C@@H]1CC[C@H]2[C@@H](C)C(OC/C=C/COC3O[C@@H]4O[C@@]5(C)CC[C@H]6[C@H](C)CC[C@@H]([C@H]3C)[C@@]46OO5)O[C@@H]3O[C@@]4(C)CC[C@@H]1[C@]32OO4 (stereo not given in full)", "> 41.4 µM"],
  ["CCC1(OC(=O)CNC)C(=O)OCc2c1cc1n(c2=O)Cc2cc3ccccc3nc2-1 (stereo not given)", "0.399 µM"],
  ["CN1C(=S)CSc2ccccc21", "> 100 µM"],
  ["Clc1ccc(-c2nc3c(-c4ccccc4)nc(-c4ccccc4)cn3c2-c2ccc(Cl)cc2)cc1", "> 100 µM"],
  ["O=C(/C=C\\c1cc(Br)ccc1O)/C=C/c1cc(Br)ccc1O", "3.91 µM"],
  ["CN(C)CCCOc1ccc(/C=C2/CCC/C(=C/c3ccc(OCCCN(C)C)cc3)C2=O)cc1", "4.16 µM"],
  ["COc1cc(-c2cc(-c3cccs3)c(C#N)c(N3CCOCC3)n2)cc(OC)c1OC", "> 28.5 µM"],
  ["Cc1ccc(C(=O)O)c(/C=C2\\Cc3cc(C)cc(C)c3C2=O)c1", "> 100 µM"],
  ["OCC(O)C(O)C(O)C(O)CNCCO/N=C1/C(c2c(O)[nH]c3ccccc23)=Nc2ccccc21 (stereo not given)", "> 50 µM"],
  ["COC(=O)[C@H](C)NC(=O)C1(CNC(=O)[C@H](C)NC(=O)OC(C)(C)C)Cc2ccccc2-c2ccccc2C1", "42.9 µM"],
  ["O=c1c2ccccc2nc2n1CCc1c-2[nH]c2cc3c(cc12)OCO3", "> 25 µM"],
  ["CCOC(=O)c1cc(-c2ccc([N+](=O)[O-])cc2)c([N+](=O)[O-])[nH]1", "> 10 µM"],
  ["CCSc1nc(NC(C)c2ccccc2)c2cnn(CO)c2n1 (stereo not given)", "> 100 µM"],
  ["CS(=O)(=O)O[C@H]1C(=O)N(c2cc3c4ccccc4ccc3c3ccccc23)[C@@H]1c1ccccn1", "> 100 µM"],
  ["OCC1C2CCC3(OCCO3)C12 (stereo not given)", "> 100 µM"],
  ["CC1=NNC(=O)C1C1CC(c2c[nH]c3ccccc23)=NN(c2ccccc2)C1=O (stereo not given)", "> 100 µM"],
  ["COc1ccc2nc3cc(Cl)ccc3c(NCCNCC(O)CO)c2c1 (stereo not given)", "3.33 µM"],
  ["N#Cc1sc2c(c1OC(=O)c1ccc(Cl)cc1)c(=O)n(-c1ccccc1)c(=S)n2-c1ccccc1", "33.3 µM"],
  ["O=C(NC(=O)c1ccccc1)OC(c1ccccc1)C1CO1 (stereo not given)", "> 100 µM"],
  ["CCC(C)C(=O)O[C@H]1C(=O)O[C@@H]2C[C@H]3C(C)=CC(=O)[C@@H](O)[C@]3(C)[C@H]3[C@@H](O)[C@H](O)[C@@]4(C)OC[C@]32[C@@H]14 (stereo not given in full)", "< 0.0185 µM"],
  ["CN(CC(=O)O)CC(=O)O", "> 100 µM"],
  ["COC(=O)C(=O)C(C#N)c1cccc(Cl)c1 (stereo not given)", "> 100 µM"],
  ["Cc1cc(I)cc(CNCCN2CCOCC2)c1O", "> 100 µM"],
  ["CCNC(=O)Oc1ccc(/C(=C(\\C)c2ccc(Cl)cc2)c2ccc(OCCN(CC)CC)cc2)cc1", "4.16 µM"],
  ["COc1ccc(C2CC(c3ccc(NS(=O)(=O)c4cc([N+](=O)[O-])ccc4C)cc3)=NN2S(=O)(=O)c2cc([N+](=O)[O-])ccc2C)cc1 (stereo not given)", "> 100 µM"],
  ["O=C(O)C1CC(C2CCCCN2)CN2CCCCC12 (stereo not given)", "> 100 µM"],
  ["Cc1ccc(NC(=O)CC(=O)N2N=C(N3CCCCC3)CC2c2ccccc2)cc1 (stereo not given)", "> 100 µM"],
  ["Cn1nc(-c2ccccc2)c2c(/C=C/c3ccc(Cl)cc3)onc2c1=O", "> 100 µM"],
  ["C1=Nc2ccccc2Cn2nncc21", "> 100 µM"],
  ["Cc1nn(C(=O)c2ccc(Cl)cc2)c2c1C(c1ccccc1O)SC(N)=N2 (stereo not given)", "> 10 µM"],
  ["CCC[CH2][Sn]1([CH2]CCC)[O]C(=O)CN=C(C)c2ccccc2[O]1", "3.55 µM"]
]}
